Taken from patent US12371454B2.

- TARGET OR TEST SYSTEM: Kras and SOS1 (biotin-tagged human Kras loaded with GDP, His-tagged human SOS1) (Homo sapiens, UniProt P01116, G12D)
- Construct: made in house; host or cells: E. coli (stated for Kras only)
- Sequence (P01116 1-188 isoform P01116-2 G12D): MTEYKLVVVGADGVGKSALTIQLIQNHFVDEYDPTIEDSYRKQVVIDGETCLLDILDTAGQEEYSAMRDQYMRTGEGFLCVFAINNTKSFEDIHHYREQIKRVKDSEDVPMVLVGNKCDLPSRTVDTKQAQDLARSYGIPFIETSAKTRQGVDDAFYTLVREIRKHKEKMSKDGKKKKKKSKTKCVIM
- METHOD SUMMARY: Protein-protein interaction inhibition between Kras and SOS1 (KrasGl2D-SOS PPI) using AlphaScreen
- Type: binding
- STUDY CONDITIONS: AlphaScreen; biotin-tagged human Kras loaded with GDP, His-tagged human SOS1; read-out: KRAS G12D-SOS PPI IC50
Positions of bridges follow the written chain, without caps; N, C: chain ends. Non-standard residues stand in square brackets, D forms with d. Residues, ends and D or L forms follow the SMILES beside them. *: point of attachment. NMePhe(4-Cl) = CN[C@@H](Cc1ccc(Cl)cc1)C(=O)O; NMePhe(2-Cl) = CN[C@@H](Cc1ccccc1Cl)C(=O)O; hPhe(4-Cl) = N[C@@H](CCc1ccc(Cl)cc1)C(=O)O; Phe(4-Cl) = N[C@@H](Cc1ccc(Cl)cc1)C(=O)O; Phe(3-I) = N[C@@H](Cc1cccc(I)c1)C(=O)O; NMeCha = CN[C@@H](CC1CCCCC1)C(=O)O; NMeD = CN[C@@H](CC(=O)O)C(=O)O; NMeL = CN[C@@H](CC(C)C)C(=O)O; NMeV = CN[C@H](C(=O)O)C(C)C; Pip = O=C(O)[C@@H]1CCCCN1; NMeAib = CNC(C)(C)C(=O)O; Nle = CCCC[C@H](N)C(=O)O; Piperidide = C1CCN(*)CC1; Ac5c = NC1(C(=O)O)CCCC1; Sar = CNCC(=O)O
ENDPOINT NAME: pIC50
Conceptually, pIC50 converts a concentration in mol/L into minus its log10.

CC[C@H](C)[C@@H]1NC(=O)[C@H](CC(C)C)N(C)C(=O)C[C@@H](C(=O)N2CCCCC2)N(C)C(=O)[C@H](CC(C)C)NC(=O)C(C)(C)N(C)C(=O)[C@H](Cc2ccc(Cl)cc2)NC(=O)[C@H](Cc2cccc(I)c2)NC(=O)CN(C)C(=O)[C@H](CC2CCCCC2)N(C)C(=O)CN(C)C(=O)CN(C)C1=O [Compound 330] ([NMeL]I[Sar][Sar][NMeCha][Sar][Phe(3-I)][Phe(4-Cl)][NMeAib]L[NMeD]-Piperidide; lactam N-11) | 7.10
CCCC[C@@H]1NC(=O)[C@H](Cc2cccc(I)c2)NC(=O)CN(C)C(=O)[C@H](Cc2ccc(Cl)cc2)N(C)C(=O)CN(C)C(=O)CN(C)C(=O)[C@H]([C@@H](C)CC)NC(=O)[C@H](CC(C)C)N(C)C(=O)C[C@@H](C(=O)N2CCCCC2)N(C)C(=O)[C@H](CC(C)C)NC(=O)[C@H](Cc2ccccc2Cl)N(C)C1=O [Compound 168] ([NMeL]I[Sar][Sar][NMePhe(4-Cl)][Sar][Phe(3-I)][Nle][NMePhe(2-Cl)]L[NMeD]-Piperidide; lactam N-11) | 7.54

Query :: Request the reported pIC50 associated with CC[C@H](C)[C@@H]1NC(=O)[C@@H]2CCCCN2C(=O)C[C@@H](C(=O)N2CCCCC2)N(C)C(=O)[C@H](C(C)C)N(C)C(=O)C2(CCCC2)NC(=O)[C@@H]2CCCN2C(=O)[C@H](CCc2ccc(Cl)cc2)NC(=O)CN(C)C(=O)[C@H](CC2CCCCC2)N(C)C(=O)CN(C)C(=O)CN(C)C1=O [Compound 841] ([Pip]I[Sar][Sar][NMeCha][Sar][hPhe(4-Cl)]P[Ac5c][NMeV][NMeD]-Piperidide; lactam N-11)
Result :: 7.62
